# self-cleavage values compiled below
B1: OR4K15 (parent)
chain: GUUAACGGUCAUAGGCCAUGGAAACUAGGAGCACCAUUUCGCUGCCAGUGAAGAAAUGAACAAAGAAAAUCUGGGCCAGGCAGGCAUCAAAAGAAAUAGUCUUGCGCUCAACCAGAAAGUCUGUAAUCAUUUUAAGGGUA

- Variants of: B1
- assay-summary: self-cleavage, relative activity (ratio to wild type); higher = more cleavage; in vitro, sequencing; the parent is a self-cleaving ribozyme
Could you respond with only the numeric value?

Consider the worked cases shown below.
>>> print(df.to_string())
   variant_code  readout_number
0     U43C A91U            1.88
1   A117G U130C            0.39
2     U9C A135G             1.5
3     G21A A30G            1.51
4   U120A U130A            0.54

Alright, here's another variant for you.
Given the variant A4G A13G , what is its reported self-cleavage? 1.27
